target: CDK2/CyclinA (Homo sapiens, UniProt P24941); assay: Kinase assay determining CDK2/CyclinA activity; conditions: read-out: CDK2 (activity range)
Let's look at some compounds and their measured IC50.

- Compound: "Nc1ccc(C(=O)Nc2ccc(Nc3cc(NCCO)ncn3)cc2)cc1 [(60)]"
  Test system: "CDK2/CyclinA (Homo sapiens, UniProt P24941)"
  IC50: "10 to 250 µM"
- Compound: "COc1ccccc1-c1cc(Nc2ccc(NC(=N)N)cc2)ncn1 [(53)]"
  Test system: "CDK2/CyclinA (Homo sapiens, UniProt P24941)"
  IC50: "1 to 10 µM"
- Compound: "COc1ccccc1-c1cc(Nc2ccc(NC(=O)C(N)c3ccc4ccccc4c3)cc2)ncn1 (stereo not shown) [(146)]"
  Test system: "CDK2/CyclinA (Homo sapiens, UniProt P24941)"
  IC50: "1 to 10 µM"
- Compound: "Cc1ccc(Nc2cc(-c3cncnc3)ncn2)cc1NS(C)(=O)=O [(110)]"
  Test system: "CDK2/CyclinA (Homo sapiens, UniProt P24941)"
  IC50: "1 to 10 µM"
- Compound: "COc1ccccc1-c1cc(Nc2ccc(NC(=O)[C@@H]3Cc4ccccc4CN3)cc2)ncn1 [(65)]"
  Test system: "CDK2/CyclinA (Homo sapiens, UniProt P24941)"
  IC50: "1 to 10 µM"
- Compound: "Nc1ccc(C(=O)Nc2ccc(Nc3cc(-c4ccccc4OCc4ccccc4)ncn3)cc2)cc1 [(4)]"
  Test system: "CDK2/CyclinA (Homo sapiens, UniProt P24941)"
  IC50: "1 to 10 µM"
- Compound: "COc1ccccc1-c1cc(Nc2ccc(NC(=O)C3CCCCC3)cc2)ncn1 [(41)]"
  Test system: "CDK2/CyclinA (Homo sapiens, UniProt P24941)"
  IC50: "10 to 250 µM"
- Compound: "COc1ccccc1-c1cc(Nc2ccc(NC(=O)c3c[nH]c4ccccc34)cc2)ncn1 [(133)]"
  Test system: "CDK2/CyclinA (Homo sapiens, UniProt P24941)"
  IC50: "1 to 10 µM"
- Compound: "COc1ccccc1-c1cc(Nc2ccc(NC(=O)[C@@H]3CCN3)cc2)ncn1 [(90)]"
  Test system: "CDK2/CyclinA (Homo sapiens, UniProt P24941)"
  IC50: "1 to 10 µM"
- Compound: "COc1ccccc1-c1cc(Nc2cccc(C(N)=O)c2)ncn1 [(115)]"
  Test system: "CDK2/CyclinA (Homo sapiens, UniProt P24941)"
  IC50: "0.001 to 1 µM"
- Compound: "COc1ccccc1-c1cc(Nc2ccc(NC(=O)c3ccc(N4CCN(C)CC4)cc3)cc2)ncn1 [(49)]"
  Test system: "CDK2/CyclinA (Homo sapiens, UniProt P24941)"
  IC50: "1 to 10 µM"
- Compound: "Cc1ccc(S(=O)(=O)Nc2ccc(Nc3cc(-c4ccc(CCC(=O)O)cc4)ncn3)cc2)cc1 [(17)]"
  Test system: "CDK2/CyclinA (Homo sapiens, UniProt P24941)"
  IC50: "10 to 250 µM"
- Compound: "COc1ccccc1-c1cc(Nc2ccc(NC(=O)[C@H]3CCCN3)cc2)ncn1 [(91)]"
  Test system: "CDK2/CyclinA (Homo sapiens, UniProt P24941)"
  IC50: "1 to 10 µM"
- Compound: "COc1ccccc1-c1cc(Nc2ccc(NC(=O)CC3CCCCN3C(=O)OC(C)(C)C)cc2)ncn1 (stereo not shown) [(48)]"
  Test system: "CDK2/CyclinA (Homo sapiens, UniProt P24941)"
  IC50: "1 to 10 µM"
- Compound: "Cc1ccc(Nc2cc(-c3cccc(N)c3)ncn2)cc1NS(=O)(=O)c1ccccc1 [(109)]"
  Test system: "CDK2/CyclinA (Homo sapiens, UniProt P24941)"
  IC50: "1 to 10 µM"
- Compound: "COc1ccccc1-c1cc(Nc2ccc(NC(=O)CN(C)C)cc2)ncn1 [(46)]"
  Test system: "CDK2/CyclinA (Homo sapiens, UniProt P24941)"
  IC50: "1 to 10 µM"
- Compound: "COc1ccc(-c2cc(Nc3ccc(NS(=O)(=O)c4ccc(C)cc4)cc3)ncn2)cc1 [(1)]"
  Test system: "CDK2/CyclinA (Homo sapiens, UniProt P24941)"
  IC50: "1 to 10 µM"
- Compound: "COc1ccccc1-c1cc(Nc2ccc(NC(=O)Cc3ccccc3)cc2)ncn1 [(71)]"
  Test system: "CDK2/CyclinA (Homo sapiens, UniProt P24941)"
  IC50: "1 to 10 µM"
- Compound: "CCCS(=O)(=O)Nc1ccc(Nc2cc(-c3ccccc3OC)ncn2)cc1 [(154)]"
  Test system: "CDK2/CyclinA (Homo sapiens, UniProt P24941)"
  IC50: "0.001 to 1 µM"
